- subject of test: hPDE10A2 (Homo sapiens, UniProt Q9Y233)
- Sequence (Q9Y233 267-1055): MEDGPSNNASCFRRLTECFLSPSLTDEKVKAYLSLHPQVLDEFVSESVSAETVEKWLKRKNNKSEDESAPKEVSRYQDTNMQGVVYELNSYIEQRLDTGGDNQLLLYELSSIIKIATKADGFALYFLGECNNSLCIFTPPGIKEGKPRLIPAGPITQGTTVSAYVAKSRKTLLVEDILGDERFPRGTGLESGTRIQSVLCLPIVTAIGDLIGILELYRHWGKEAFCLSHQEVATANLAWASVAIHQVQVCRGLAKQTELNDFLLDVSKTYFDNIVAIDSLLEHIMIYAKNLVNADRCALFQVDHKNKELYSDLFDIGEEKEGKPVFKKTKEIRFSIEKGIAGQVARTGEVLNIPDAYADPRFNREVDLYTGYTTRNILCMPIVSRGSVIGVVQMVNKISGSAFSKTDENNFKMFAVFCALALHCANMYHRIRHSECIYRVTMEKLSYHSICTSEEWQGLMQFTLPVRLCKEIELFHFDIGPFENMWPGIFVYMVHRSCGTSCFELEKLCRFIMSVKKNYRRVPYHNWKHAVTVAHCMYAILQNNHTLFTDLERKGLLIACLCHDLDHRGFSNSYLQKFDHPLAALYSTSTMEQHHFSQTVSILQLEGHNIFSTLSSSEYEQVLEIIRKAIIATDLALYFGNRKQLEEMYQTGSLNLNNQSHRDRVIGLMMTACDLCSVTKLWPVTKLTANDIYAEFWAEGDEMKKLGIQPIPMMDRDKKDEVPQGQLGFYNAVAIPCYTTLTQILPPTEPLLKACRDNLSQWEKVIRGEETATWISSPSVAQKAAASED
- procedure details: biochemical
- study conditions: read-out: hPDE10A2 Emax
So basically, if Emax comes in under 90% it's label 1, and if it's 90% or more it's label 0.

{"columns": ["compound", "cat"],
 "data": [
  ["C[C@@H]1CCN(c2ccc(F)cn2)C[C@H]1c1cc(C(F)F)nc2ncnn12", "label 1"],
  ["FC(F)c1cc([C@H]2CC[C@H]3CC[C@@H]2N3c2c(Br)ccc3ccncc23)n2ncnc2n1", "label 0"],
  ["C[C@H]1CCN(c2nccc3ccc(Br)cc23)C[C@@H]1c1cc(C(F)F)nc2ncnn12", "label 1"],
  ["Cc1ccc(C#N)c(N2CC[C@@H](C)[C@H](c3cc(C(F)F)nc4ncnn34)C2)n1", "label 0"],
  ["Cc1cccc2ccnc(N3CC[C@@H](C)C(c4cc(C(F)F)nc5ncnn45)C3)c12 (some centres unmarked)", "label 1"],
  ["C[C@@H]1CCN(c2cc(N3CCOCC3)ccn2)C[C@H]1c1cc(C(F)F)nc2ncnn12", "label 1"],
  ["C[C@H]1CCN(c2nccc3occc23)C[C@@H]1c1cc(C(F)F)nc2ncnn12", "label 1"],
  ["C[C@@H]1CCN(c2ncnc3ccccc23)C[C@H]1c1cc(C(F)F)nc2ncnn12", "label 0"],
  ["C[C@@H]1CCN(c2ncc(C(F)(F)F)cc2Br)C[C@H]1c1cc(C(F)F)nc2ncnn12", "label 0"],
  ["C[C@@H]1CCN(c2ccc(C#N)cn2)C[C@H]1c1cc(C(F)F)nc2ncnn12", "label 1"],
  ["Cc1cc(C(F)(F)F)cc(N2CC[C@@H](C)[C@H](c3cc(C(F)F)nc4ncnn34)C2)n1", "label 0"],
  ["C[C@@H]1CCN(c2ncc(Cl)c3ccccc23)C[C@H]1c1cc(C(F)F)nc2ncnn12", "label 0"]
]}

* * *

Measured receptor occupancy at 10 mg/kg, listed per entry.
- subject of test: PDE2A (Rattus norvegicus)
- Construct: from tissue; host or cells: rat brain striatal sections (ex vivo)
- Sequence (Q01062 1-928): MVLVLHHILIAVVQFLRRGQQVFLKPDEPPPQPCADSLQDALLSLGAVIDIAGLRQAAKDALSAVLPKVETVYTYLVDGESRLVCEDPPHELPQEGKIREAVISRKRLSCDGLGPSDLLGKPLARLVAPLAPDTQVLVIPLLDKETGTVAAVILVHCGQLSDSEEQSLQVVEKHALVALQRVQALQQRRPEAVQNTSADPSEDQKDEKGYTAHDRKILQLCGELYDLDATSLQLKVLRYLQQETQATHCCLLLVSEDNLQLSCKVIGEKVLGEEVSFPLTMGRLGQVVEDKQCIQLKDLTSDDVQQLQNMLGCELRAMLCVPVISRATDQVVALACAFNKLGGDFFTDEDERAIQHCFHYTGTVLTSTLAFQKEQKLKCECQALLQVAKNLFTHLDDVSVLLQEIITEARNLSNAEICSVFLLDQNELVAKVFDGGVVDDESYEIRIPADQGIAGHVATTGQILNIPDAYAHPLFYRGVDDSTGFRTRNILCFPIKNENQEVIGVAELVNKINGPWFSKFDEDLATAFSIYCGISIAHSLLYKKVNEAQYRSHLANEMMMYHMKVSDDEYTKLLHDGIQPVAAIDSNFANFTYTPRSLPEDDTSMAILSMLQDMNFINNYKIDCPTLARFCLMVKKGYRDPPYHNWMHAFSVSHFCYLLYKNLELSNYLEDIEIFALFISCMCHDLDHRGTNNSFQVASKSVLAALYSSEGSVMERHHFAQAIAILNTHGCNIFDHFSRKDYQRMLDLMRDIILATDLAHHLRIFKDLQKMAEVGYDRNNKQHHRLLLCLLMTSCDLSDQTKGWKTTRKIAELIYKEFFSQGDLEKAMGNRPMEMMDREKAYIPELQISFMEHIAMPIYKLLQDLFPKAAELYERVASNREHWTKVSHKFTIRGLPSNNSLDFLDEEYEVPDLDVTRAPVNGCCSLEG
- procedure details: PDE2 occupancy by ex-vivo autoradiography with [3H]B-17a
- Type: in vivo
- study conditions: rat, po, read-out: PDE2 occupancy at 10 mg/kg, route PO (oral), 10 mg/kg, male Wistar rats, striatum, percentage occupancy
measured property: receptor occupancy at 10 mg/kg (%)

{"columns": ["structure as smiles", "value"],
 "data": [
  ["Cc1cc([C@@H]2CN(c3nccc4ccc(Cl)cc34)CC[C@H]2C)n2ncnc2n1", 90],
  ["C[C@@H]1CCN(c2ncc(Cl)c3ccccc23)C[C@H]1c1cc(C(F)F)nc2ncnn12", 3],
  ["C[C@@H]1CCN(c2nccc3ccc(Br)cc23)C[C@H]1c1cc(C(F)F)nc2ncnn12", 94],
  ["Cc1cc([C@@H]2CN(c3nccc4ccc(Br)cc34)CC[C@H]2C)n2ncnc2n1", 96],
  ["C[C@@H]1CCN(c2nccc3cccc(F)c23)C[C@H]1c1cc(C(F)F)nc2ncnn12", 18],
  ["C[C@@H]1CCN(c2nccc3ccc(Cl)cc23)C[C@H]1c1cc(C(F)F)nc2ncnn12", 93]
]}

* * *

- subject of test: hPDE2A (Homo sapiens, UniProt O00408)
- Construct: made in house; host or cells: Sf9 insect cells (baculovirus)
- Sequence (O00408 whole entry): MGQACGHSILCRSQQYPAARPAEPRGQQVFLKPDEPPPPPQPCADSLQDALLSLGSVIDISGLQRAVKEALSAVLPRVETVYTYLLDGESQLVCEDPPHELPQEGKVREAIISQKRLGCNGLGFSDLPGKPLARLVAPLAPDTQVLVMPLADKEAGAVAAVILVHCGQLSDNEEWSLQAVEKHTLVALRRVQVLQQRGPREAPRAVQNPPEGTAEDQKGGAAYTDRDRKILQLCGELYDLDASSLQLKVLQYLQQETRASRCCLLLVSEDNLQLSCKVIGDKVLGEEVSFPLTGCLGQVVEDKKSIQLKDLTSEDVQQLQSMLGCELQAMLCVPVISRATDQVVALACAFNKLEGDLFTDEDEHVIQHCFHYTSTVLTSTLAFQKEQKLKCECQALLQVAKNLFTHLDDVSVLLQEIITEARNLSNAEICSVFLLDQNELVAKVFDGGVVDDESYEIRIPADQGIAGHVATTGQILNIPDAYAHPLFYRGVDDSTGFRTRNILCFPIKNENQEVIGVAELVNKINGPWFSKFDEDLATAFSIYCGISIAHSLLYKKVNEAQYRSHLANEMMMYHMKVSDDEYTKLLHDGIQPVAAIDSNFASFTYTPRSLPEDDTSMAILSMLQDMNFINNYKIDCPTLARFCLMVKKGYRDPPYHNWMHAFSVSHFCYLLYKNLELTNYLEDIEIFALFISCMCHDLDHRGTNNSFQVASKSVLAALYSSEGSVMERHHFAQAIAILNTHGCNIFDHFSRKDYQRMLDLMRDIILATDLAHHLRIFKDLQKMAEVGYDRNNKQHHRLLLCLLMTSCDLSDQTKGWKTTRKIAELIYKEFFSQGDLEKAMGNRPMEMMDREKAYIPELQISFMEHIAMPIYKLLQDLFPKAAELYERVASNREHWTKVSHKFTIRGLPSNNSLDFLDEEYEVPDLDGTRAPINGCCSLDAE
- procedure details: In vitro assay PDE2A (SPA, 3H-cGMP)
- Assay type: biochemical
- study conditions: read-out: hPDE2A Emax

{"columns": ["structure as smiles", "Emax [%]"],
 "data": [
  ["C[C@@H]1CCN(c2ccc(F)cn2)C[C@H]1c1cc(C(F)F)nc2ncnn12", 100],
  ["C[C@@H]1CCN(c2ccc(Cl)cn2)C[C@H]1c1cc(C(F)F)nc2ncnn12", 101],
  ["C[C@@H]1CCN(c2nccc3ccc(F)cc23)C[C@H]1c1cc(C(F)F)nc2ncnn12", 101],
  ["C[C@@H]1CCN(c2cc(I)ccn2)C[C@H]1c1cc(C(F)F)nc2ncnn12", 100],
  ["C[C@@H]1CCN(c2cc(N3CCOCC3)ccn2)C[C@H]1c1cc(C(F)F)nc2ncnn12", 100],
  ["COc1cccc2c(N3CC[C@@H](C)[C@H](c4cc(C(F)F)nc5ncnn45)C3)nccc12.Cl", 99],
  ["C[C@@H]1CCN(c2nccc3cccc(F)c23)C[C@H]1c1cc(C(F)F)nc2ncnn12", 100],
  ["C[C@H]1CCN(c2nccc3occc23)C[C@@H]1c1cc(C(F)F)nc2ncnn12", 9],
  ["C[C@@H]1CCN(c2nccc3occc23)C[C@H]1c1cc(C(F)F)nc2ncnn12", 98]
]}

* * *

Quick list: Emax per entry.
- subject of test: hPDE10A2 (Homo sapiens)
- procedure details: biochemical
- study conditions: read-out: hPDE10A2 Emax
measured property: Emax (%)

{"columns": ["structure as smiles", "scale unit", "value"],
 "data": [
  ["C[C@@H]1CCN(c2nccc3cccnc23)C[C@H]1c1cc(C(F)F)nc2ncnn12", "%", 93],
  ["C[C@@H]1CCN(c2cccc(C(F)(F)F)n2)C[C@H]1c1cc(C(F)F)nc2ncnn12", "%", 95],
  ["C[C@@H]1CCN(c2cc(C#N)c3cc(Cl)ccc3n2)C[C@H]1c1cc(C(F)F)nc2ncnn12", "%", 96],
  ["Cc1cc([C@@H]2CN(c3nccc4ccccc34)CC[C@H]2C)n2ncnc2n1", "%", 98]
]}

* * *

- System: hPDE3B
- procedure details: In vitro assay PDE3 (SPA, 3H-cAMP)
- Format: biochemical, human
- Parameters: unit not given here
Recorded measurements of hPDE3B Emax, one per entry
measured property: hPDE3B Emax

{"columns": ["compound", "value"],
 "data": [
  ["C[C@@H]1CCN(c2cc(I)ccn2)C[C@H]1c1cc(C(F)F)nc2ncnn12", 95],
  ["C[C@@H]1CCN(c2ncc(C(F)(F)F)cc2Br)C[C@H]1c1cc(C(F)F)nc2ncnn12", 38],
  ["C[C@@H]1CCN(c2nccc3cccc(F)c23)C[C@H]1c1cc(C(F)F)nc2ncnn12", 81],
  ["Cc1cc([C@@H]2CN(c3nccc4ccccc34)CC[C@H]2C)n2ncnc2n1", 69],
  ["C[C@@H]1CCN(c2ccccn2)C[C@H]1c1cc(C(F)F)nc2ncnn12.Cl", 38],
  ["Cc1ccc(C#N)c(N2CC[C@@H](C)[C@H](c3cc(C(F)F)nc4ncnn34)C2)n1", 66],
  ["C[C@@H]1CCN(c2cc(N3CCOCC3)ccn2)C[C@H]1c1cc(C(F)F)nc2ncnn12", 48],
  ["C[C@H]1CCN(c2nccc3occc23)C[C@@H]1c1cc(C(F)F)nc2ncnn12", 53],
  ["C[C@@H]1CCN(c2nccc3ccc(F)cc23)C[C@H]1c1cc(C(F)F)nc2ncnn12", 62],
  ["C[C@@H]1CCN(c2ccc(F)cn2)C[C@H]1c1cc(C(F)F)nc2ncnn12", 56],
  ["COc1cnc(N2CC[C@@H](C)[C@H](c3cc(C(F)F)nc4ncnn34)C2)c2ccccc12", 73],
  ["C[C@@H]1CCN(c2ncc(Cl)c3ccccc23)C[C@H]1c1cc(C(F)F)nc2ncnn12", 67],
  ["CC(C)Oc1cccnc1N1CC[C@@H](C)[C@H](c2cc(C(F)F)nc3ncnn23)C1.Cl", 27],
  ["C[C@@H]1CCN(c2ncnc3ccccc23)C[C@H]1c1cc(C(F)F)nc2ncnn12", 67],
  ["Cc1cccc(N2CC[C@@H](C)C(c3cc(C(F)F)nc4ncnn34)C2)n1 (stereo partly shown)", 58],
  ["C[C@@H]1CCN(c2nccc3occc23)C[C@H]1c1cc(C(F)F)nc2ncnn12", 54]
]}
